Biological target: RAC-alpha serine/threonine-protein kinase (Homo sapiens)
Sequence (P31749 whole entry): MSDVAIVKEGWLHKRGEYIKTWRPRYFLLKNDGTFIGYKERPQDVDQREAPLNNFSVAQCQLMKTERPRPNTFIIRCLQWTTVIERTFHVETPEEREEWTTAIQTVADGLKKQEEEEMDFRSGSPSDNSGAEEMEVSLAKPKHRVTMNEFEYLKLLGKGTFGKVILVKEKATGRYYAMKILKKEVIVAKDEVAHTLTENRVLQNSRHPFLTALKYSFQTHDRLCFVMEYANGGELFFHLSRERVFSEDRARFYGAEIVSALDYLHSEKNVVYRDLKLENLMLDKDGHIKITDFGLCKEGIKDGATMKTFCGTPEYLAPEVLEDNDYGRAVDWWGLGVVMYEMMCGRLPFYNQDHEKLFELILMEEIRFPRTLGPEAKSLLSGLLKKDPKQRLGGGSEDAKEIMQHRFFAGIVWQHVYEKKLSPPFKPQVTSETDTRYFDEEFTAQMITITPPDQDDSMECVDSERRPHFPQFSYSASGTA
property-label: IC50 (µM)

[
  {
    "item-smiles": "CN(Cc1ccccc1)Cc1c(O)cc2oc(-c3ccc(O)c(O)c3)c(O)c(=O)c2c1O",
    "property-label": "IC50",
    "endpoint-value": 5.5
  },
  {
    "item-smiles": "O=c1c(O)c(-c2ccc(O)c(O)c2)oc2cc(O)c(CN3CCOCC3)c(O)c12",
    "property-label": "IC50",
    "endpoint-value": 6.2
  }
]

Ref: BindingDB's records for doi:10.1111/cbdd.12489
